# measurementParameters: in sec-butanol, 318.15 K
measureName: solubility (mole fraction)
# print the numeric value only

Would you kindly share the measured solubility (mole fraction) for "CCCCCc1ccc2c(c1)C(=O)c1ccccc1C2=O" ?
0.0257

* * *

# measurementParameters: in 2-butanone, 308.15 K
measureName: solubility (mole fraction)
# print the numeric value only

Would you kindly share the measured solubility (mole fraction) for "CCCCCc1ccc2c(c1)C(=O)c1ccccc1C2=O" ?
0.0683

* * *

# measurementParameters: in 2-butanone, 298.15 K
measureName: solubility (mole fraction)
# print the numeric value only

Would you kindly share the measured solubility (mole fraction) for "CCCCCc1ccc2c(c1)C(=O)c1ccccc1C2=O" ?
0.0513

* * *

# measurementParameters: in n-propanol, 293.15 K
measureName: solubility (mole fraction)
# print the numeric value only

Would you kindly share the measured solubility (mole fraction) for "CCCCCc1ccc2c(c1)C(=O)c1ccccc1C2=O" ?
0.00743

* * *

# measurementParameters: in ethyl acetate, 298.15 K
measureName: solubility (mole fraction)

Would you kindly share the measured solubility (mole fraction) for "CCCCCc1ccc2c(c1)C(=O)c1ccccc1C2=O" ?
0.0663

* * *

# measurementParameters: in 2-butanone, 288.15 K
measureName: solubility (mole fraction)

Would you kindly share the measured solubility (mole fraction) for "CCCCCc1ccc2c(c1)C(=O)c1ccccc1C2=O" ?
0.0341

* * *

# measurementParameters: in n-propanol, 323.15 K
measureName: solubility (mole fraction)
# print the numeric value only

Would you kindly share the measured solubility (mole fraction) for "CCCCCc1ccc2c(c1)C(=O)c1ccccc1C2=O" ?
0.049

* * *

# measurementParameters: in acetonitrile, 293.15 K
measureName: solubility (mole fraction)
# print the numeric value only

Would you kindly share the measured solubility (mole fraction) for "CCCCCc1ccc2c(c1)C(=O)c1ccccc1C2=O" ?
0.00478

* * *

# measurementParameters: in ethanol, 303.15 K
measureName: solubility (mole fraction)
# print the numeric value only

Would you kindly share the measured solubility (mole fraction) for "CCCCCc1ccc2c(c1)C(=O)c1ccccc1C2=O" ?
0.00725

* * *

# measurementParameters: in MIBK, 308.15 K
measureName: solubility (mole fraction)
# print the numeric value only

Would you kindly share the measured solubility (mole fraction) for "CCCCCc1ccc2c(c1)C(=O)c1ccccc1C2=O" ?
0.0744

* * *

# measurementParameters: in ethyl acetate, 308.15 K
measureName: solubility (mole fraction)
# print the numeric value only

Would you kindly share the measured solubility (mole fraction) for "CCCCCc1ccc2c(c1)C(=O)c1ccccc1C2=O" ?
0.088

* * *

# measurementParameters: in isopropyl acetate, 308.15 K
measureName: solubility (mole fraction)
# print the numeric value only

Would you kindly share the measured solubility (mole fraction) for "CCCCCc1ccc2c(c1)C(=O)c1ccccc1C2=O" ?
0.0974

* * *

# measurementParameters: in methanol, 298.15 K
measureName: solubility (mole fraction)

Would you kindly share the measured solubility (mole fraction) for "CCCCCc1ccc2c(c1)C(=O)c1ccccc1C2=O" ?
0.00271

* * *

# measurementParameters: in n-propanol, 313.15 K
measureName: solubility (mole fraction)
# print the numeric value only

Would you kindly share the measured solubility (mole fraction) for "CCCCCc1ccc2c(c1)C(=O)c1ccccc1C2=O" ?
0.0265

* * *

# measurementParameters: in 2-butanone, 318.15 K
measureName: solubility (mole fraction)
# print the numeric value only

Would you kindly share the measured solubility (mole fraction) for "CCCCCc1ccc2c(c1)C(=O)c1ccccc1C2=O" ?
0.105
